The measurements presented in this section are drawn from the nanobody polyreactivity screen of Harvey et al. (2022).

assay: yeast display, Sf9 membrane polyspecificity reagent, FACS + sequencing; frameworks hold sequencing errors
measured.endpoint: polyreactivity (PSR sort gate)

1) QVHLVESGGGLVQAGGSLRLSCAASGRIFSRNAMGWYRQAPGKERELVASITRGGSTYYADSVKGRFTISRDNAKITVYLQMNSLKPEDTAVYYCAAVFYDRGQRYNYWGQGTQVTVSS high polyreactivity
2) QVQLVESGGGLVQAGGSLRLSCAASGRTFGKYAMGWYRQAPGKERELVAGISSRGGSTYYADSVKGRFTISRDNAKNTVYLQMNSLKPEDTAVYYCAKRPLTSNASQGDYWGQGTQVTVSS high polyreactivity
3) QVQLVESGGGLVQAGGSLRLSCAASGSTFTVNGMGWYRQAPGKERELVASITWSGGSTYYADSVKGRFTISRDNAKNTVYLLMNSLKPEDTAVYYCAADEKLYITGYDYWGHGTQVTVSS low polyreactivity
4) QDQLVESGGGLVQAGGSLRLSCAASGSTFTFYVMGWYRQAPGKERELVAAITASGGSTYYADSVKGRFTISRDNAKNTVYLQMNSLKPEDTAVYYCAARPTYYYSRTYDYWGQGTQVTVSS low polyreactivity
5) QVQLGDSGGGLVQAGGRLGLSCAASGSTFGRYAMGWYRPAPGKERELVAAISSSGGRTYYADSVKGRFTISRDNAKNTVYLQMNSLKPEDTAVYYCASDARFRQKYEYWGQGTQVTVSS high polyreactivity
6) QVQLVESGGGLVQAGGSLRLSCAASGSTFDYYAMGWYRQTPGKERELVAAISWSGGSTYYADSVKGRFTISRDNAKNTVYLQMNSLKPEDTAVYYCAAATNWGGEYWGQGTQVTVSS high polyreactivity
7) QVQLVESGGGLVQAGGSLRLSCAASGRTFVVYAMGWYRQAPGKERELVASISSIGDITNYADSVKGRFTISRDNAKNTVYLQMNSLKPEYTAVYYCTAPIGGSYNTRRAAEYDYWGQGTQVTVSS low polyreactivity
8) QVQLVESGGGLVQEGGSLRLSCAASGSIFYRNAMGWYRQAPGKERELVAAISSDGSTNYADSVKGRFTISRDNAKNTVYLHMNSLKPEDTAVYYCAAPWTQILDYWGQGTQVTVSS low polyreactivity
9) QVQLVESGGGLVQAGGSLRLSCAASGRTFGPNGMGWYRQAPGKERELVAAITRRGGSTYYADSVKGRFTISRDNEKNTVYLQMNSLKPEDTAVYYCAAYSSWGGFDYWGQGTQVTVSS low polyreactivity
10) QVQLVESGGGLVQAGGSLRLSCAASGSIFRYYAMGWYRQAPGKERELVAAITASSGNTYYADSVKGRFTISRDNAKNTVYLQMNRLKPEDTSVYYCSKQPGISYRHYDYWGLGTQVTVSS high polyreactivity

Next up:
Query: Reported polyreactivity (PSR sort gate) for QVQLVESGGGLVQAGGSLRLSCAASGRIFFYNAMGWYRQAPGKERELVAGISRSGTSTYYADSVKGRFTISRDNAKNTVYLQMNSLKPEDTAVYYCAADAWSVILWREMDYWGQGTQVTVSS : what is it?
Response: low polyreactivity

###

assay: yeast display, Sf9 membrane polyspecificity reagent, FACS + sequencing; frameworks hold sequencing errors
measured.endpoint: polyreactivity (PSR sort gate)

1. QVQLVESGGGLVQAGGSLRLSCAAYGRTFGLNAMGWYRQAPGKERELVAAISSSGGSTYYADSVKGRFTISRDNAKNTVYLQMNSLKPEDTAVYYCARVPLHRYGYWGQGTQVNVSS high polyreactivity
2. QVQLVESGGGLVQAGGSLRLSCAASGSILSYNTMGWYRHAPGKEREFVACITYSGSRTYYADSVKGRFTISRDKAKNTDYLQMNSLKPEDTAVYYCAKRNYYLLYWGQGTQVTVSS high polyreactivity

###

assay: yeast display, Sf9 membrane polyspecificity reagent, FACS + sequencing; frameworks hold sequencing errors
measured.endpoint: polyreactivity (PSR sort gate)

1. QVQLVKSGGGLVQAGGSLRLSCAASGFIIPEYTMGWYRQAPGKERELVAAISGSGGSTYYADSVKGRFTISRDNAKNTVYLQMNSLKPEDTAVYYCAASYAVSRYLQTYAHAHGYWGQGTQVTVSS low polyreactivity
2. QVQLVESGGGLVQAGGSLRLSCAASGITFNDYTMGWYRQGPGKERELVAVNTKTGSRTYYADSVKGRFTISRDNAKNTVYLQMNSLKPEDTAVYYCNALYYIHYYQGYGYWGQGTQVTVSS high polyreactivity
3. QVQLVESGGGIVQAGGSLRLSCAASGSIFTHYAMGWDRQAPGKERELVATISSTGSTDYADSVKGRFTISRDNAKNTVFLQINSLKPEDTAVYYCAAVSFYKTRATYYFWYDYWGQGTQVTVSS low polyreactivity
4. QVQLVESGVGLVQAGGSLRLSCAASVSTFAYNAMGWYRQSPGKEREIVASISWSGGSTYYADSVKGRFTISRDNAKNSVYLQMNSLKPEDTAVYYCAADLNAYPQRAYDYWGQGTQVTVSS low polyreactivity
5. QDQLVESGGGLVQAGGSLRLSCAASGSTFGYYAMGWYRQAPGKERELVAAITSGASTNYADSVKGRFTISRDNAKNTVYLQMNSLKPEDTAVYYCAAGFQTRTPLNEFDYWGQGTQVTVSS low polyreactivity
6. QVQLVESGGGLVQAGGSLRLSCAASGSIFTYNAMGWYRQAPGKERELVAAITRSGGRTYYADSVKGRFTISRDTAKNTVYLQMNSLKPEATAVYYCNTLRVGWGQGTQVTVSS high polyreactivity
7. QVQLVESGGGLVQAGGSLRLSCAASGSIIGIYAMGWYRQAPGKEREMVAAINRGGSTYYADSVKGRFTISRDNAKNTVYLQMNSLKPEDTAVYYCSASPPYNTEFDYWGQGTQVTVSS low polyreactivity
8. QVQLVESGGGLVQAGGSLRLSCAASGRIFYNNAMGWYRQAPGKERELVAGISRSSGRTYYADSVKGRFTISRDIAKNTVYLQMNSLKPEDTAVYYCNTVSWPLSSKYYYWGQGTQVTVSS high polyreactivity
9. QVQLVESGGGLVQAGGSLRLSCAASGSTFRYNAMGWYRQAPGKERELVAAISSGSSTNYADSVKGRFTISRDNEKNTVYFQMNSLKPVDTAVYYCAAQPGYYDDFYYWGQGTQVTVSA low polyreactivity
10. QVQLVESGGGLVQAGGSLSLSCAASGRTFLYNAMGWYRQAPGKERELVAGITQSGSSTYYADSVKGRFTISRDNAKNTVYLQMNSMKPEDTAVYYCAKVLYRRGYKFDYWGQGTQVTVSS low polyreactivity

# next sequence below
Query: Suppose we examine the sequence QVHLVESGGGLVQAGGSLRLSCAASGFIFNYYAMGWYRQAPGKERELVAAISWRGTSTYYADSVKGRFTISRDNAKNTVYLQMNSLKPEDNAVYYCAAAKYPYVRRAWNFVGYDYWGQGTQVTVSS ; what polyreactivity (PSR sort gate) value has been reported?
Response: high polyreactivity

###

assay: yeast display, Sf9 membrane polyspecificity reagent, FACS + sequencing; frameworks hold sequencing errors
measured.endpoint: polyreactivity (PSR sort gate)

1) QVQLVESGGGLVQAGGSLRLSCAASGSTFYQNAMGWYRQAPGKEMELVAAISSSGRTYYADSVKGRFTISRDNAKNTVFLQMNSLKPEDTAVYYCAFGAYGSLYSIRVAYGRMDYWGQGTQVTVSS high polyreactivity
2) QVQLVESGGGLVQAGGRLRLSCAASGLIFRTYTMVWYRQAPGKERELVATITRRGGTTYYADSVKGRFTISRDNAKNTVYLQMNSLKPEDTAVYYCAAKSAYHGLVGGYYYWGQGTQVTVSS high polyreactivity

###

assay: yeast display, Sf9 membrane polyspecificity reagent, FACS + sequencing; frameworks hold sequencing errors
measured.endpoint: polyreactivity (PSR sort gate)

// known answers, use as guide
1. QDQLVESGGGLVQTGGSLRLSCASSGLIFTYYALGWYRQAPGTERELVAANRGSYSSTYYADSVKGRFTISRDNAKNTVYLHMNSLKPEDTAVYYCAAKYYWGQGTQVTVSS high polyreactivity
2. QVQLVESGGFLVQAGGSLRLTCAASGSIIENNAMGWSRQAPRKERELVDAISSDDTTNYADSVKGRFTISRDNAKNTVYLLMNRLLPVDTAVYYCNVDSGPEDKTVTYDYWGQGTQVTVSS low polyreactivity
3. QVQLVESGGGLVQAGGSLRLSCAASGFTFGYYGMGWSRQAPGKERELVAGISSSGSRTYYADSVKGRFTISRDNAKNTVYLQMNSLKPEDTAVYYCNKYYSGKSYTGEDYWGQGTQVTVSS high polyreactivity
4. QVHLVESGGGLVQAGGSLRLSCAAAGSTVVYNVMGWYRQAPGKERELVAAIRWRGGSTYADSVKGRFTISRDNAKKTVYLQMNSLKPEDTAVYYCAAGIPRYWYAGHYDYWGQGTQVTVSS low polyreactivity
5. QVQLVESGGGLVQAGGSLRLSCAASGRTFYYNAKGWYRQAPGKERELVARITSSGGSTYYADSVKGRFTISRDTSKNTVFLQMNSLKPEDTAVYYCAAGRSRYLWFGRDFDYWGQGTQVTVSS low polyreactivity

Query: Give the measured polyreactivity (PSR sort gate) of QVQLVESGGGLVQAGGTLRLSCAASGFIINRYAMGWYRQPPGKERELVAAISWSGGRTYYADSVKGRFTISRDNAKNTVSLQMNSLKPEDTAVYYCAADSYTSLDGRDYWGQGTQVTVSS .
Response: high polyreactivity

Query: QVQIVESGGGLVQAGGSLRLTCAASGFTLPIYAMGWYRQAPGKEREFVAAITASGDNTYYADSVKGRFTISRDNAKNTVYLQMNSLKPEDTAVYYCAAAHWWIVGYDYWGQGTQVTVSS , same question.
Response: low polyreactivity

Query: Ok, now QVLLVESGGGLVQAGGSLRLSCAASGRTFARNTMGWYRQAPGKERELVAGITSTGSTNYADSVKGRFTISRDNAKNTVYLQMNSLKPEDTAVYYCNARRYRPGSQYGYDYWGQGTQVTVSS
Response: high polyreactivity

Query: Another: QVQLVESGGGLVQASGSLRLSCAASVRIFFVNAMGWYRQEHGKERELVAAIPSSGGSTYYADSVKGRFTISRDNAKNTVYLQMNSLKPEDTAVYYCNARSWYPYDYWGQGTQVTVSS
Response: low polyreactivity

Query: What would you report for QVQLVESGGGLVQAGGSLRLSCAASGFTSSRNAMGWYLQAPGKEREWVATISSGGDTYYADSVKGRFTISRDNAKNTVYLQMNSLKPVDTAVYYCNKDPLYDWGYDYWGHGTQVTVSS ?
Response: low polyreactivity

Query: Could you do the same for QVQLVETGGGLVQAGGSLRLSCAASGSIFYRYAMGWYRQAPGKEREMVAAIRTRGGTYYADSVKGRFTISRDNAKNTVYLQMNSLKPEDTAVYYWNAVVPGCTAVDYDYWGQGTQVTVSS , please?
Response: high polyreactivity
